B1: TPR t1 (parent)
chain: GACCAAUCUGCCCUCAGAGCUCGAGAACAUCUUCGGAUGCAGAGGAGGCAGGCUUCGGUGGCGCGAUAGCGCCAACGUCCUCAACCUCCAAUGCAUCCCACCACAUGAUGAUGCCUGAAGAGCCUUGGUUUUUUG

- Variants of: B1
- Protocol Text: polymerase ribozyme fitness, log enrichment relative to wild type (log ratio); higher = more active; in vitro selection for triplet polymerase activity
Record met whenever polymerase ribozyme fitness (log ratio) is at -1 or higher; record not met when lower.

Here's what some known entries look like.
{"columns": ["Residue String", "Group"],
 "data": [
  ["GACUAAUCGGCCCUCAGAGCUCGAGAACAUCUUCGGAUGCAGAGGAGGCAGGCCUCGGUGGCGCGAUAGCGCCAAAGUCCUCAACCUCCAAUGCAUCCCACCACAUGAUGAUGCCUGAAGAGCCUUGGUUUUUUG [C4U U9G U54C C76A]", "met"],
  ["GACCAAUCUGCCCUCAGAGCUCGAGAACAUCUUCGGAUGCAGAGGAGGCAGGCUUCGGUGGCGCGAUAUCGCCAACGUCCUCAACCUCCAAUGCAUCCCACCCCAUGAUGAUGCCUGAAGAGCCUUGGUUCUUUG [G69U A103C U131C]", "not met"],
  ["GACCAAUCUGCCCUCAGAGCUCGAGGACAUCUUCGGAUGCAGAGGAGGCAGGCUUCGGUGGCGCGAUAGCGCCAACGCCCUCAACCUCCAAUGCAUCCCACCACAUGAUGAUGCCUGAAGAGCCUUGGUUUUUUG [A26G U78C]", "not met"],
  ["GACCAAUCUGCCCUCAGAGCUCGAGAACAUCUUCGGAUGCAAAGGAGGCAGGCUUCGGUGGCGCGAUAGCGCCAACGUCCUCAACCUCCAAUGCAUCCCACCACAUGAUGAUACCUGAAGAGCCUUGGUUUUUUG [G42A G113A]", "not met"],
  ["GACCAAUCUGCCCUCAGAGCUCGAGAACAUCUUCGGAUGCAGAGGAGGCUGGCUUCGGUGGCGCGAUAGCGCCAACGUCCUUAACCUCCAAUGCAUCCCACCACAUGAUGAUGCCUGAUGAGCCUUGGUUUUUUG [A50U C82U A119U]", "not met"],
  ["GACCAAUCUGCCCUCAGAGCUCGAGAACAUCUUCGGAUGCAGAGGAGGCAGGCUUCGGUGGCGCGAUAGCGCCAACGUCCUCAACCUCCAAAGCAUCCCACCACAUGAUGAUGCCUUAAGAGCCUUGGUUUUUUG [U92A G117U]", "not met"],
  ["GACCAAGCUGCCCUCAGAGCUCGAGAACAUCUUCGGAUGCAGAGGAGGCAGGCUUCGGUGGCGCGAUAGCGCCAACGUCCUCAACCUCCAAUGCAACCCACCACAUGAUGAUGCCUGAAGCGCCUUGGUUUUUUG [U7G U96A A121C]", "met"]
]}

Next variant, please.
# bool: polymerase ribozyme fitness (log ratio) of GACCAAUCUGCCCUCAGAGCUCGAGAACAUCUUCGGAUGCAGAGGAGGCAGGCUUCGGUGACGCGAUAGCGCCAACGUCCUCAACCUCCAAUGCAUCCCACCACAAGAUGAUCCCUGAAGAGCCUUGGUUUUUUG [G61A U106A G113C] >= -1
not met
